B1: VPS39 (parent)
chain: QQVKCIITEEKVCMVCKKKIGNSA

Variants of: B1
Test details: protein stability index of a GFP-peptide fusion (GPS, HEK-293T) (PSI 1-6); higher = more stable;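 also: lentivirally expressed fusions sorted by FACS into six bins by GFP to DsRed ratio, PSI derived from sequencing read proportions per bin multiplied by bin number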
Condition: c terminus: a fixed tail appended
Please respond with reported protein stability index for every item in the list.
// no unit string in output, number only

Entry "C13T" has what protein stability index? 3.83

Entry "K4E" has what protein stability index? 3.28

Entry "I7C" has what protein stability index? 4.47

Entry "I6S" has what protein stability index? 3.5

Entry "I6D" has what protein stability index? 3.82

Entry "K4N" has what protein stability index? 2.83

Entry "Q1L" has what protein stability index? 2.62

Entry "V12F" has what protein stability index? 2.11

Entry "G21R" has what protein stability index? 2.16

Entry "C5H" has what protein stability index? 3.21

Entry "A24S" has what protein stability index? 2.37

Entry "E9M" has what protein stability index? 1.33

Entry "C16H" has what protein stability index? 3.79

Entry "K19G" has what protein stability index? 2.48

Entry "Q1K" has what protein stability index? 1.88

Entry "K17T" has what protein stability index? 2.5

Entry "A24F" has what protein stability index? 2.1

Entry "N22F" has what protein stability index? 2

Entry "Q2F" has what protein stability index? 2.17

Entry "A24Y" has what protein stability index? 2.57

Entry "E9K" has what protein stability index? 2.49

Entry "S23F" has what protein stability index? 1.95

Entry "G21F" has what protein stability index? 2.87

Entry "C13L" has what protein stability index? 3.1

Entry "M14A" has what protein stability index? 2.49

Entry "K4D" has what protein stability index? 2.68

Entry "C5F" has what protein stability index? 1.96

Entry "I6M" has what protein stability index? 2.93

Entry "T8Q" has what protein stability index? 3.34

Entry "C13H" has what protein stability index? 3.62

Entry "N22D" has what protein stability index? 3.7

Entry "I20A" has what protein stability index? 3.35

Entry "C5Q" has what protein stability index? 3.07

Entry "Q1C" has what protein stability index? 2.4

Entry "I20H" has what protein stability index? 4.29

Entry "K11T" has what protein stability index? 2.55

Entry "V15L" has what protein stability index? 2.82

Entry "V15Q" has what protein stability index? 2.6

Entry "K19A" has what protein stability index? 2.38

Entry "A24I" has what protein stability index? 2.49

Entry "C16F" has what protein stability index? 3.15

Entry "A24V" has what protein stability index? 2.24

Entry "N22M" has what protein stability index? 2.75

Entry "C5R" has what protein stability index? 3.48

Entry "V3L" has what protein stability index? 2.77

Entry "S23R" has what protein stability index? 2.77
